# system_tested: Nuclear receptor ROR-gamma (Homo sapiens)
# assay_notes: qHTS assay to identify small molecule antagonists of the retinoid-related orphan receptor gamma (ROR-gamma) signaling pathway (AID 1159521; further: nearly all actives have a fitted effect of over 50% in size)
# assay_setup: Tet-on RORgamma CHO cells, RORE-luciferase, 16 h; series mostly up to 92.4 µM
Records with an inconclusive call do not appear. The source made the active and inactive calls. The call rests on the fitted dose curve; in most records, active means well fitted inhibition curve with a large enough effect in the repeat runs; inconclusive means weak or mixed curves, or effect the other way; inactive means no such curve, though single readings can be large or run the other way.
Outcomes: active, inactive

{"columns": ["compound", "class"],
 "data": [
  ["O=S1OC[C@@H]2[C@H](CO1)[C@]1(Cl)C(Cl)=C(Cl)[C@@]2(Cl)C1(Cl)Cl (some centres not stated)", "active"],
  ["C=CC(=O)OC(C)(C)C", "inactive"],
  ["CCCCCCC#N", "inactive"],
  ["C#CCOC(C(=O)OCCN(C)C)(c1ccccc1)c1ccccc1", "inactive"],
  ["CCC(COC(=O)c1cc(OC)c(OC)c(OC)c1)(c1ccccc1)N(C)C (configuration not stated)", "inactive"],
  ["CCCC(=O)Cl", "inactive"],
  ["CCCCN=C=O", "inactive"]
]}
